Tested on: HEPG2
Experiment: Euclidean distance of Cell Painting phenotypic profile (signed KS, 77 features) to DMSO centroid (dimensionless distance); 5 or 10 uM (library dependent); higher = stronger phenotypic change vs DMSO (phenoactivity)
Conditions: 48 h
Counter-ions that a name gives are not always drawn.
Decision: Euclidean distance compared against 0.8; not below it gives y, below it gives n.

Before answering, review these 2 worked examples.
## Task Evaluate O=NN(CCCl)C(=O)NCCCl : Euclidean distance at minimum 0.8?
## Result n

## Task Evaluate N=C(N)NC(=O)c1nc(Cl)c(N)nc1N [Amiloride HCl dihydrate] : Euclidean distance at minimum 0.8?
## Result n

Let us examine a further case.
## Task Evaluate O=C(NC1CCOCC1)c1ccc(-c2cc(-c3c[nH]nc3-c3ccccn3)ccn2)cc1 : Euclidean distance at minimum 0.8?
## Result y

---

Test system: HEPG2
Assay: Euclidean distance of Cell Painting phenotypic profile (signed KS, 77 features) to DMSO centroid (dimensionless distance); 5 or 10 uM (library dependent); higher = stronger phenotypic change vs DMSO (phenoactivity)
Conditions: 48 h
Decision: Euclidean distance compared against 0.8; not below it gives yes (1), below it gives no (0).

Before answering, review these 3 worked examples.
## Task Evaluate Nc1ccccc1NC(=O)c1ccc(CNc2nccc(-c3cccnc3)n2)cc1 : Euclidean distance at minimum 0.8?
## Result yes (1)

## Task Evaluate CCOC(N)=O : Euclidean distance at minimum 0.8?
## Result no (0)

## Task Evaluate CCOC(=O)[C@H](CCc1ccccc1)N[C@H]1CCc2ccccc2N(CC(=O)O)C1=O : Euclidean distance at minimum 0.8?
## Result no (0)

More entries:
## Task Evaluate O=C(O)Cc1ccccc1Nc1c(Cl)cccc1Cl [Diclofenac Potassium] : Euclidean distance at minimum 0.8?
## Result yes (1)

---

Tested on: DU145
Test: Euclidean distance of Cell Painting phenotypic profile (signed KS, 77 features) to DMSO centroid (dimensionless distance); 5 or 10 uM (library dependent); higher = stronger phenotypic change vs DMSO (phenoactivity)
Conditions: 48 h
Counter-ions that a name gives are not always drawn.
parameter: Euclidean distance
Respond numerically, and do not add a unit to the figure.

## Task Quick one: give measured Euclidean distance for O=C(O)P(=O)(O)O [Foscarnet Sodium]
## Result 1.18

## Task Quick one: give measured Euclidean distance for CS(=O)(=O)N1CCN(Cc2cc3nc(-c4cccc5[nH]ncc45)nc(N4CCOCC4)c3s2)CC1
## Result 1.63

## Task Quick one: give measured Euclidean distance for CCCCN(Cc1ccc(C(=O)NO)cc1)C(=O)Nc1ccccc1
## Result 2.03

More entries:
## Task Quick one: give measured Euclidean distance for C=C1CC[C@H](O)C/C1=C/C=C1\CCC[C@]2(C)[C@@H]([C@H](C)CCCC(C)(C)O)CC[C@@H]12
## Result 0.927

## Task Quick one: give measured Euclidean distance for Cn1c(=O)c2c(ncn2CCO)n(C)c1=O
## Result 1.18

## Task Quick one: give measured Euclidean distance for O=C(O)c1ccc(-n2nc(-c3ccccc3O)nc2-c2ccccc2O)cc1
## Result 1.82

## Task Quick one: give measured Euclidean distance for CCc1nn(CCCN2CCN(c3cccc(Cl)c3)CC2)c(=O)n1CCOc1ccccc1 [Nefazodone hydrochloride]
## Result 1.27

## Task Quick one: give measured Euclidean distance for O=C(Nc1cccnn1)N1CCC(=Cc2cccc(Oc3ccc(C(F)(F)F)cn3)c2)CC1
## Result 1.2

## Task Quick one: give measured Euclidean distance for O=C(O)CSc1nnc(Br)n1-c1ccc(C2CC2)c2ccccc12
## Result 0.762

---

System: DU145
Assay: Euclidean distance of Cell Painting phenotypic profile (signed KS, 77 features) to DMSO centroid (dimensionless distance); 5 or 10 uM (library dependent); higher = stronger phenotypic change vs DMSO (phenoactivity)
Conditions: 48 h
Where a name gives a salt, the structure may show the parent alone.
// reported Euclidean distance for each item listed

The cases that follow already have their Euclidean distance on record.
## Task Quick one: give measured Euclidean distance for O=C(O)/C=C/c1ccc(Cn2ccnc2)cc1 [Ozagrel sodium]
## Result 1.01

## Task Quick one: give measured Euclidean distance for OC(CCN1CCCC1)(c1ccccc1)C1CCCCC1 (centres undefined) [Procyclidine HCl]
## Result 0.562

## Task Quick one: give measured Euclidean distance for Nc1ccc2ncnc(NCCc3ccc(Oc4ccccc4)cc3)c2c1
## Result 1.06

## Task Quick one: give measured Euclidean distance for Cc1nccn1CC1CCc2c(c3ccccc3n2C)C1=O (centres undefined) [Ondansetron HCl]
## Result 1.01

## Task Quick one: give measured Euclidean distance for CN1[C@@H](CC(=O)c2ccccc2)CCC[C@H]1C[C@H](O)c1ccccc1 [Lobeline hydrochloride]
## Result 1.56

More entries:
## Task Quick one: give measured Euclidean distance for COc1c(O[C@@H]2O[C@H](CO)[C@@H](O)[C@H](O)[C@H]2O)cc2c(c1OC)-c1ccc(SC)c(=O)cc1[C@@H](NC(C)=O)CC2 [Thiocolchicoside]
## Result 0.944

## Task Quick one: give measured Euclidean distance for O=C(Nc1ccccc1)Nc1ccc(-c2ccc(C(=O)[C@@H]3CCC[C@H]3C(=O)O)cc2)cc1
## Result 0.804

## Task Quick one: give measured Euclidean distance for NC(=O)N1c2ccccc2CC(=O)c2ccccc21 [Oxcarbazepine]
## Result 1.26

## Task Quick one: give measured Euclidean distance for O=c1ccn([C@@H]2O[C@H](CO)[C@@H](O)[C@H]2O)c(=O)[nH]1
## Result 0.955

---

Tested on: DU145
Test: Euclidean distance of Cell Painting phenotypic profile (signed KS, 77 features) to DMSO centroid (dimensionless distance); 5 or 10 uM (library dependent); higher = stronger phenotypic change vs DMSO (phenoactivity)
Conditions: 48 h
Decision: Euclidean distance compared against 0.8; not below it gives rule met, below it gives rule not met.

Before answering, review these 6 worked examples.
## Task Evaluate CC[C@H]1OC(=O)[C@H](C)[C@@H](O[C@H]2C[C@@](C)(OC)[C@@H](O)[C@H](C)O2)[C@H](C)[C@@H](O[C@@H]2O[C@H](C)C[C@H](N(C)C)[C@H]2O)[C@](C)(OC)C[C@@H](C)C(=O)[C@H](C)[C@@H](O)[C@]1(C)O : Euclidean distance at minimum 0.8?
## Result rule met

## Task Evaluate CNC(=C[N+](=O)[O-])NCCSCc1ccc(CN(C)C)o1 : Euclidean distance at minimum 0.8?
## Result rule not met

## Task Evaluate CCC(=O)c1c(O)cc(O)cc1O : Euclidean distance at minimum 0.8?
## Result rule met

## Task Evaluate CNC(CC(=O)O)C(=O)O (stereo not drawn) : Euclidean distance at minimum 0.8?
## Result rule not met

## Task Evaluate Cc1nnc(SCC2=C(C(=O)O)N3C(=O)[C@@H](NC(=O)Cn4cnnn4)[C@H]3SC2)s1 [Cefazolin Sodium] : Euclidean distance at minimum 0.8?
## Result rule met

## Task Evaluate O=C(NCc1cccc(O)c1)Nc1nc(-c2ccncc2)cs1 : Euclidean distance at minimum 0.8?
## Result rule met

Let us examine a further case.
## Task Evaluate CCOC(N)=O : Euclidean distance at minimum 0.8?
## Result rule not met

---

// reported Euclidean distance for each item listed
Test system: 786-O
Experiment: Euclidean distance of Cell Painting phenotypic profile (signed KS, 77 features) to DMSO centroid (dimensionless distance); 5 or 10 uM (library dependent); higher = stronger phenotypic change vs DMSO (phenoactivity)
Conditions: 48 h
Respond numerically, and do not add a unit to the figure.

## Task Quick one: give measured Euclidean distance for CC(C)c1c(C(=O)Nc2ccccc2)c(-c2ccccc2)c(-c2ccc(F)cc2)n1CC[C@@H](O)C[C@@H](O)CC(=O)O
## Result 1.57

## Task Quick one: give measured Euclidean distance for COc1ccc(C(=O)Nc2sc3c(c2C(N)=O)CCCC3)cc1OC
## Result 1.04

More entries:
## Task Quick one: give measured Euclidean distance for CC(C)(CO)[C@@H](O)C(=O)NCCC(=O)NCCSSCCNC(=O)CCNC(=O)[C@H](O)C(C)(C)CO
## Result 1.1

## Task Quick one: give measured Euclidean distance for CN1CC[C@@H](NC(=O)Nc2ccc(C#N)cc2)C[C@@H]1c1nc2ccccc2[nH]1
## Result 2.28

## Task Quick one: give measured Euclidean distance for COc1cc2ncnc(Oc3cccc(NC(=O)Nc4cc(C(C)(C)C(F)(F)F)on4)c3)c2cc1OC
## Result 0.889

---

Tested on: DU145
Experiment: Euclidean distance of Cell Painting phenotypic profile (signed KS, 77 features) to DMSO centroid (dimensionless distance); 5 or 10 uM (library dependent); higher = stronger phenotypic change vs DMSO (phenoactivity)
Details: 48 h
Where a name gives a salt, the structure may show the parent alone.
parameter: Euclidean distance
Respond numerically, and do not add a unit to the figure.

The cases that follow already have their Euclidean distance on record.
## Task Quick one: give measured Euclidean distance for O=C(O)c1ccccc1
## Result 1.58

## Task Quick one: give measured Euclidean distance for CC/C(=C(\c1ccccc1)c1ccc(OCCN(C)C)cc1)c1ccccc1 [Tamoxifen Citrate]
## Result 1.36

## Task Quick one: give measured Euclidean distance for O=C(Nc1cccc(C(F)(F)F)c1)Nc1cc(S(=O)(=O)NC2CC2)ccc1-c1ccsc1
## Result 1.11

## Task Quick one: give measured Euclidean distance for NCCCS(=O)(=O)O
## Result 0.97

## Task Quick one: give measured Euclidean distance for O=C(O[C@@H]1C[C@@H]2C[C@H]3C[C@H](C1)N2CC3=O)c1c[nH]c2ccccc12 [Dolasetron]
## Result 2.37

More entries:
## Task Quick one: give measured Euclidean distance for COc1ccc(Cl)cc1NC(=O)Nc1cc(C)nc2ccccc12
## Result 1.06

## Task Quick one: give measured Euclidean distance for O=C(O)CNC(=O)c1ncc(-c2cccc(Cl)c2)cc1O
## Result 2.71

## Task Quick one: give measured Euclidean distance for CN1CCN(c2cccc(Nc3nc4c(-c5ccc(S(C)(=O)=O)cc5)cccn4n3)c2)CC1
## Result 1.07

## Task Quick one: give measured Euclidean distance for CCN1CCN(C(=O)N[C@@H](C(=O)N[C@@H]2C(=O)N3C(C(=O)O)=C(CSc4nnnn4C)CS[C@H]23)c2ccc(O)cc2)C(=O)C1=O
## Result 0.917
